Would you kindly list pIC50 for each of these compounds?
target: APOL1 (Homo sapiens); test: MultiTox-Fluor Multiplex Cytotoxicity Assay in tet-inducible APOL1 T-REx-HEK293 cells (cell rescue, ratio of dead to live cells); settings: tet-inducible transgenic APOL1 T-REx-HEK293 cell lines, 50 ng/mL tet, 24 hours; read-out: IP50 (i.e., IC50 for cell proliferation)
pIC50: −log10 of the molar value.

{"COMPOUND": "COc1cncc(CN2CC[C@]3(C[C@@H]2C)OCCc2c3sc(Cl)c2CO)c1", "MEASURED TARGET": "APOL1 (Homo sapiens)", "pIC50": "6.30 to 7.00"}
{"COMPOUND": "CCc1cc2c(s1)CCOC21CCN(Cc2ccc3[nH]ncc3c2)CC1", "MEASURED TARGET": "APOL1 (Homo sapiens)", "pIC50": "> 7.00"}
{"COMPOUND": "C[C@H]1C[C@@]2(CCN1Cc1cc(F)c[nH]c1=O)OCCc1cc(CC(F)F)sc12", "MEASURED TARGET": "APOL1 (Homo sapiens)", "pIC50": "6.00 to 6.30"}
{"COMPOUND": "CCc1cc2c(s1)CCO[C@@]21CCN(CC(C)(C)O)[C@@H](C)C1", "MEASURED TARGET": "APOL1 (Homo sapiens)", "pIC50": "6.30 to 7.00"}
{"COMPOUND": "C[C@H]1C[C@@]2(CCN1Cc1cnn(CC(O)C(F)(F)F)c1)OCCc1c2sc(C(F)(F)F)c1CO (some centres unmarked)", "MEASURED TARGET": "APOL1 (Homo sapiens)", "pIC50": "> 7.00"}
{"COMPOUND": "CCc1cc2c(s1)CCO[C@@]21CCN(Cc2cn(Cc3cn(C)nc3C)nn2)[C@@H](C)C1", "MEASURED TARGET": "APOL1 (Homo sapiens)", "pIC50": "> 7.00"}

Count: 2. Required value per item: pIC50.
1. CCOCCOCC(O)Cn1cc(CN2CC[C@]3(C[C@@H]2C)OCCc2sc(CC)cc23)nn1 (some centres unmarked)
2. CCc1cc2c(s1)CCO[C@@]21CCN(Cc2c[nH]c(C)n2)[C@@H](C)C1

1: > 7.00; 2: > 7.00

====

Biological target: UniProtKB O14791
Sequence (O14791 1-398 S342G/I384M): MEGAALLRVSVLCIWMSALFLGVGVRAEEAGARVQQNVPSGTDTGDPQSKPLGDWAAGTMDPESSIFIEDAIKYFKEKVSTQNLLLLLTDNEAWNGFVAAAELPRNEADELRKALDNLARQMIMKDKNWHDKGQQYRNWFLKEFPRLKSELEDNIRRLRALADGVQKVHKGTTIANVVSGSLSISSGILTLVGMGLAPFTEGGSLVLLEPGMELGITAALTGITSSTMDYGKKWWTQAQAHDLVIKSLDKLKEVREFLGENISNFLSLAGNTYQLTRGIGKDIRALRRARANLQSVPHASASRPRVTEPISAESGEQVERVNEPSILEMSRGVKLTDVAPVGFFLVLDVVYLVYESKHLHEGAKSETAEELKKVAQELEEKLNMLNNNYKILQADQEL
Experiment: MultiTox-Fluor Multiplex Cytotoxicity Assay in tet-inducible APOL1 T-REx-HEK293 cells (cell rescue, ratio of dead to live cells)
Settings: tet-inducible transgenic APOL1 T-REx-HEK293 cell lines, 50 ng/mL tet, 24 hours; read-out: IP50 (i.e., IC50 for cell proliferation)
MEASURED PARAMETER: IC50

Count: 4. Required value per item: IC50.
1. CCc1cc2c(s1)CCOC21CCN(Cc2cn(CC(=O)NC3COC3)nn2)CC1
2. C[C@H]1C[C@@]2(CCN1Cc1cn(CCS(C)(=O)=O)nn1)OCC(=O)c1cc(Cl)sc12
3. C[C@H]1C[C@@]2(CCN1Cc1cnn(CCS(C)(=O)=O)c1)OCC(O)c1cc(C(F)(F)C(F)F)sc12 (single isomer, unassigned) [Compound 1014]
4. CCc1cc2c(s1)CCO[C@@]21CCN(Cc2cn(Cc3c(CO)cnc(C)c3O)nn2)[C@@H](C)C1

1. 500 to 1000 nM
2. 100 to 500 nM
3. < 100 nM
4. 100 to 500 nM
